Catalogue of Average EC50, pSTAT5 assay in pan T cells, MMP2 cleaved molecule values
# Target or system: T1, IL-2 receptor βγ complex on pan T cells (human, UniProt P14784 27-551; P31785 23-369)
# T1 sequence (looked up) 1: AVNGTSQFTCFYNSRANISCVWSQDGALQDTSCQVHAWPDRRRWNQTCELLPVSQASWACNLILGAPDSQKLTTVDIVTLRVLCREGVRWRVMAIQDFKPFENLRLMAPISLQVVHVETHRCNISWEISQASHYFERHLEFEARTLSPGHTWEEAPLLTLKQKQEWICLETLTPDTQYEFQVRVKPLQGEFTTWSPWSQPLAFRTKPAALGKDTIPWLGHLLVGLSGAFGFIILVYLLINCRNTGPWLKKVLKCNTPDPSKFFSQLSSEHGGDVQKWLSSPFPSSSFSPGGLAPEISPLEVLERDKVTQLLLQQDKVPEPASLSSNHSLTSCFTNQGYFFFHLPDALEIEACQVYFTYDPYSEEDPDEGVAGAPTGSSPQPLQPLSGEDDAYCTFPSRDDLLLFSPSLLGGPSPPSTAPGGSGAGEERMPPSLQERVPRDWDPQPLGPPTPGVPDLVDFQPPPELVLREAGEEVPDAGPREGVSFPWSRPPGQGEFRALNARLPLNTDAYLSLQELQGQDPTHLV
# T1 sequence (looked up) 2: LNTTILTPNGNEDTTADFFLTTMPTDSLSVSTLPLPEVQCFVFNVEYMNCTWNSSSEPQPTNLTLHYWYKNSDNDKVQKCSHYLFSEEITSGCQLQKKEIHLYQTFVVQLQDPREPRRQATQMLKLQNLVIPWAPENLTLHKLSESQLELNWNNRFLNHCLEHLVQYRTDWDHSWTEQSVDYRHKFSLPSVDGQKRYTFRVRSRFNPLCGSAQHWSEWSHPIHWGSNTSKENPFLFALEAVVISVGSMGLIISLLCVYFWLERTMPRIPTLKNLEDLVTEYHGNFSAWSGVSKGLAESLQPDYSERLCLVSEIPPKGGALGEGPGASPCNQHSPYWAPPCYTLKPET
# Assay name: cell-based or functional assay
Primed or numbered codes have the meaning given here. [ ]: non-standard residue; d: D form. Ygp″ = O-(PEG8-amino)-tyrosine (O-(8x polyethylene glycol-amino)-tyrosine); Yn3″ = O-(PEG9-azido)-tyrosine (O-(9x polyethylene glycol-azido)-tyrosine); Ygp = O-(8x polyethylene glycol-amino)-tyrosine; Yn3 = O-(9x polyethylene glycol-azido)-tyrosine; hSer = N[C@@H](CCO)C(=O)O; Nle = CCCC[C@H](N)C(=O)O
Field: numeric (nM). Do not append units.

Sample records with Average EC50, pSTAT5 assay in pan T cells, MMP2 cleaved molecule:
Binder | Reading
CMP-120, MMP2 cleaved (ligand, ends and bridges not checked; also: Lys23 side chain attached to cleavable peptide, MMP2-cleaved, remnant stays attached, cut site not given here) APTSSSTKKTQLQLEHLLLDLQKILNGINNYKNPKLTR[Nle]L[hSer][Yn3″]KF[Ygp″][Nle]PKKATELKHLQCLEEELKPLEEVL[hSer]LAQSKNFHLRPRDLISNINVIVLELKGSETTF[hSer]CEYADETATIVEFLNRWITFSQSIISTLT | 0.7
CMP-126, MMP2 cleaved (ligand, ends and bridges not checked; also: Lys23 side chain attached to cleavable peptide, MMP2-cleaved, remnant stays attached, cut site not given here) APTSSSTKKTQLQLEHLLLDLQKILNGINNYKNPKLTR[Nle]L[hSer][Yn3″]KF[Ygp″][Nle]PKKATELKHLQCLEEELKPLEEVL[hSer]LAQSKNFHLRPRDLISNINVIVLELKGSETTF[hSer]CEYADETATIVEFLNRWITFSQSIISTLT | 2.03

Please report the recorded Average EC50, pSTAT5 assay in pan T cells, MMP2 cleaved molecule for CMP-144, MMP2 cleaved (ligand, not fully specified (residue 23); ends and bridges not checked; also: MMP2-cut remnant of cleavable moiety on Lys23 side chain, not given here) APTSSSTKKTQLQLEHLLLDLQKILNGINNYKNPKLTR[Nle]L[hSer][Yn3]KF[Ygp][Nle]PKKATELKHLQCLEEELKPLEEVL[hSer]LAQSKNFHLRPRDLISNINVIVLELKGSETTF[hSer]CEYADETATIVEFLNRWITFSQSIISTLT . 0.63

I have this binder here, CMP-123, MMP2 cleaved (ligand, ends and bridges not checked; also: Lys23 side chain attached via PEG9 to cleavable peptide, MMP2-cleaved, remnant stays attached, cut site not given here) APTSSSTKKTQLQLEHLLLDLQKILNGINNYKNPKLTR[Nle]L[hSer][Yn3″]KF[Ygp″][Nle]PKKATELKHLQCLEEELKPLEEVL[hSer]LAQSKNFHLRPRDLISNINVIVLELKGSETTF[hSer]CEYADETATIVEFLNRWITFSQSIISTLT , and I need its recorded Average EC50, pSTAT5 assay in pan T cells, MMP2 cleaved molecule. 2.93

Reference for the values: patent US20240417436A1
